Listed compounds paired with reported pIC50
assay: In vitro viability test (MTT) on non-cancerous Vero cell lines; assay type: cell-based; conditions: African green monkey, Vero cells (non-cancerous), non-cancerous model, read-out: Cytotoxicity Against Vero Cell Lines (IC50)
pIC50: −log10 of the molar value.
property-measured: pIC50

[[record]]
sample_smiles = "COc1ccc(/C=N/NC(=O)c2ccc(NC(=O)c3cccnc3)cc2)cc1OC"
property_measured = "pIC50"
numeric_result = 3.89

[[record]]
sample_smiles = "CC(=NNC(N)=S)c1ccc(NC(=O)c2cccnc2)cc1"
property_measured = "pIC50"
numeric_result = 3.98

[[record]]
sample_smiles = "O=C(N/N=C/c1ccc(Cl)cc1Cl)c1ccc(NC(=O)c2cccnc2)cc1"
property_measured = "pIC50"
numeric_result = 4.07

[[record]]
sample_smiles = "CN(C)c1ccc(/C=C/C=N/NC(=O)c2ccc(NC(=O)c3cccnc3)cc2)cc1"
property_measured = "pIC50"
numeric_result = 4.07


---

molecular target: human VEGFR-2 (Homo sapiens, UniProt P35968); test: In vitro VEGFR-2 enzyme inhibition assay (Human VEGFR-2 ELISA kit)
Sequence (P35968 20-1356): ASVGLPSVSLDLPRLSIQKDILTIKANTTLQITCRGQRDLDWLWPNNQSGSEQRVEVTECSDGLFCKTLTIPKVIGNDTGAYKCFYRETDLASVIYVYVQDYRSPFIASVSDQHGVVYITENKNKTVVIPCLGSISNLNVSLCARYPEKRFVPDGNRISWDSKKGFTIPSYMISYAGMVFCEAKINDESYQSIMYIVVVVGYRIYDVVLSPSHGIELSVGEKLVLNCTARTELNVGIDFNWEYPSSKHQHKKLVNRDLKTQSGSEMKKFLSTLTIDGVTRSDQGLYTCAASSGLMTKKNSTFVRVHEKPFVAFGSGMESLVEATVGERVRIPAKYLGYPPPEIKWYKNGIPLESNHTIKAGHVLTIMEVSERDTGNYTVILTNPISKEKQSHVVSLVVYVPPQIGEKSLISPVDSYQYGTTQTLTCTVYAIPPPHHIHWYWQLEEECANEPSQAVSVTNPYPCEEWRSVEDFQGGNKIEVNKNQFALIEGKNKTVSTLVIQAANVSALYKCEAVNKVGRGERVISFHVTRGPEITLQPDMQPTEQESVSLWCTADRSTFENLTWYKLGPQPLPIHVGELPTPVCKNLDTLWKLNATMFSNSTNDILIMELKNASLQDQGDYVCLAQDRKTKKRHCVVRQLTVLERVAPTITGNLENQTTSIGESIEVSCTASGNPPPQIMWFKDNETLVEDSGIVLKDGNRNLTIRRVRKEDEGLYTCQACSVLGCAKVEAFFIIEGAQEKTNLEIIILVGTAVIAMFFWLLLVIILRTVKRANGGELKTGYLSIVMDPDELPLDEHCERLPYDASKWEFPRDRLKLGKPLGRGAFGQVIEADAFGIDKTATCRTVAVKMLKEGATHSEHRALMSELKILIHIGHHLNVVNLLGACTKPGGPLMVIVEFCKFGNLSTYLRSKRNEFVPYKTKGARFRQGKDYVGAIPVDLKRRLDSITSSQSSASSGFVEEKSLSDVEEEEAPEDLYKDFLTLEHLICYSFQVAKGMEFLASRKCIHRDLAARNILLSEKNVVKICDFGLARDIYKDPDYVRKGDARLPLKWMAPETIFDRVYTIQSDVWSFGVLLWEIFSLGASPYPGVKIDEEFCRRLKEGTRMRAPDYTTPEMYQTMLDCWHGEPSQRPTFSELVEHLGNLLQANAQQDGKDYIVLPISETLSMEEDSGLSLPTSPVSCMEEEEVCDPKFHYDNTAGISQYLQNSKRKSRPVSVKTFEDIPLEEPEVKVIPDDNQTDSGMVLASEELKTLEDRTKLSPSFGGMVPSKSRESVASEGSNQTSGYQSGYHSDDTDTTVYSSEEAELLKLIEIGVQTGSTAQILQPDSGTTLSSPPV
property-measured: IC50 (nM)

[[record]]
compound = "O=C(N/N=C/c1ccc(Cl)cc1Cl)c1ccc(NC(=O)c2cccnc2)cc1 [Compound 6]"
measurement_target = "human VEGFR-2 (Homo sapiens, UniProt P35968)"
unit_descriptor = "nM"
numeric_result = 172

[[record]]
compound = "COc1ccc(/C=N/NC(=O)c2ccc(NC(=O)c3cccnc3)cc2)cc1OC [Compound 7]"
measurement_target = "human VEGFR-2 (Homo sapiens, UniProt P35968)"
unit_descriptor = "nM"
numeric_result = 113

[[record]]
compound = "CN(C)c1ccc(/C=C/C=N/NC(=O)c2ccc(NC(=O)c3cccnc3)cc2)cc1 [Compound 8]"
measurement_target = "human VEGFR-2 (Homo sapiens, UniProt P35968)"
unit_descriptor = "nM"
numeric_result = 77

[[record]]
compound = "CC(=NNC(N)=S)c1ccc(NC(=O)c2cccnc2)cc1 [Compound 11]"
measurement_target = "human VEGFR-2 (Homo sapiens, UniProt P35968)"
unit_descriptor = "nM"
numeric_result = 83.4


---

tested on: HepG2; assay: In vitro anti-proliferative activity (MTT assay), HepG2; settings: Homo sapiens, HepG2, read-out: Cytotoxicity IC50 HepG2
pIC50: −log10 of the molar value.
Binary call on pIC50: yes from 5 upward, no beneath that.

[[record]]
sample_smiles = "COc1ccc(/C=N/NC(=O)c2ccc(NC(=O)c3cccnc3)cc2)cc1OC"
measurement_target = "HepG2"
answer_label = "no"

[[record]]
sample_smiles = "CN(C)c1ccc(/C=C/C=N/NC(=O)c2ccc(NC(=O)c3cccnc3)cc2)cc1"
measurement_target = "HepG2"
answer_label = "yes"

[[record]]
sample_smiles = "CC(=NNC(N)=S)c1ccc(NC(=O)c2cccnc2)cc1"
measurement_target = "HepG2"
answer_label = "no"

[[record]]
sample_smiles = "O=C(N/N=C/c1ccc(Cl)cc1Cl)c1ccc(NC(=O)c2cccnc2)cc1"
measurement_target = "HepG2"
answer_label = "no"


Sourced from paper PMC9268560
